Biological target: T1, Abp1, P15891
T1 sequence (P15891 535-592, looked up): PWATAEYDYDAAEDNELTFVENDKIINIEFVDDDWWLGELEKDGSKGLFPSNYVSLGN
Experiment: SPOT array
Settings: median of control spots 935
VALUE_KIND: SPOT intensity
# respond with the number and nothing more

Looking up "KRKRFNLLLPKPYLT" , I found its SPOT intensity recorded as 72

Looking up "VPPVPLPFGIPPFPM" , I found its SPOT intensity recorded as 25

Looking up "ATNVPVAPPPPPASL" , I found its SPOT intensity recorded as 0

Looking up "AERNYAPRLPRRETS" , I found its SPOT intensity recorded as 50

Looking up "FSRRQSMDIPSKNRN" , I found its SPOT intensity recorded as 127

Looking up "HAPPLPPTAPPPPSL" , I found its SPOT intensity recorded as 0

Looking up "YSRKKLPVVLSKMTL" , I found its SPOT intensity recorded as 64

Looking up "KDKSRPPRPPPKPLH" , I found its SPOT intensity recorded as 339

Looking up "ISRRRLPVIMHRLKM" , I found its SPOT intensity recorded as 90

Looking up "DLPLPDLPPEPPTEL" , I found its SPOT intensity recorded as 0

Looking up "NTMKKRPAPPSLPSL" , I found its SPOT intensity recorded as 205

Looking up "TPEIPPPLPPKIMVH" , I found its SPOT intensity recorded as 2

Looking up "ALKQKKIPPPFKPHL" , I found its SPOT intensity recorded as 42

Looking up "DRIRMFIRFPKFLLE" , I found its SPOT intensity recorded as 108

Origin of the recorded values: paper PMC2756588
